Cited source: the supplement of paper PMC11316812

System: hTERT-HMEC;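 note: secreted proteins added to cultured cells, EdU pulse at the end, nuclei found by Hoechst imaging, EdU status from nuclear versus surrounding ring intensity ratio, PBS as neutral control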
Experiment: percentage of EdU-negative (G0-arrested) nuclei per well, 72 h; higher = more G0 arrest
Conditions: protein concentration 0.0225 µM; reference: sequence is the full UniProt precursor, the tested protein was the secreted form or ectodomain
QUANTITY_MEASURED: percentage of EdU-negative

>>> meas_value("MGFNLTFHLSYKFRLLLLLTLCLTVVGWATSNYFVGAIQEIPKAKEFMANFHKTLILGKGKTLTNEASTKKVELDNCPSVSPYLRGQSKLIFKPDLTLEEVQAENPKVSRGRYRPQECKALQRVAILVPHRNREKHLMYLLEHLHPFLQRQQLDYGIYVIHQAEGKKFNRAKLLNVGYLEALKEENWDCFIFHDVDLVPENDFNLYKCEEHPKHLVVGRNSTGYRLRYSGYFGGVTALSREQFFKVNGFSNNYWGWGGEDDDLRLRVELQRMKISRPLPEVGKYTMVFHTRDKGNEVNAERMKLLHQVSRVWRTDGLSSCSYKLVSVEHNPLYINITVDFWFGA")
"5.14%"
>>> meas_value("MVMLLLLLSALAGLFGAAEGQAFHLGKCPNPPVQENFDVNKYLGRWYEIEKIPTTFENGRCIQANYSLMENGKIKVLNQELRADGTVNQIEGEATPVNLTEPAKLEVKFSWFMPSAPYWILATDYENYALVYSCTCIIQLFHVDFAWILARNPNLPPETVDSLKNILTSNNIDVKKMTVTDQVNCPKLS")
"4.95%"
>>> meas_value("MRLLPLLRTVLWAAFLGSPLRGGSSLRHVVYWNSSNPRLLRGDAVVELGLNDYLDIVCPHYEGPGPPEGPETFALYMVDWPGYESCQAEGPRAYKRWVCSLPFGHVQFSEKIQRFTPFSLGFEFLPGETYYYISVPTPESSGQCLRLQVSVCCKERKSESAHPVGSPGESGTSGWRGGDTPSPLCLLLLLLLLILRLLRIL")
"5.7%"
>>> meas_value("MTARAWASWRSSALLLLLVPGYFPLSHPMTVAGPVGGSLSVQCRYEKEHRTLNKFWCRPPQILRCDKIVETKGSAGKRNGRVSIRDSPANLSFTVTLENLTEEDAGTYWCGVDTPWLRDFHDPIVEVEVSVFPAGTTTASSPQSSMGTSGPPTKLPVHTWPSVTRKDSPEPSPHPGSLFSNVRFLLLVLLELPLLLSMLGAVLWVNRPQRSSRSRQNWPKGENQ")
"5.08%"
>>> meas_value("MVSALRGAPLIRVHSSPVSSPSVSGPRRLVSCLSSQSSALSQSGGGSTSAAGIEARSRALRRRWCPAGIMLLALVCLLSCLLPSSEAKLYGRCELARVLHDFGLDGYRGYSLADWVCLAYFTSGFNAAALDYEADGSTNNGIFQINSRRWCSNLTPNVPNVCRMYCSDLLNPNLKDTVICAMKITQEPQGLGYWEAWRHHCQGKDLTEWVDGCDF [Q8IXA5]")
"4.64%"
>>> meas_value("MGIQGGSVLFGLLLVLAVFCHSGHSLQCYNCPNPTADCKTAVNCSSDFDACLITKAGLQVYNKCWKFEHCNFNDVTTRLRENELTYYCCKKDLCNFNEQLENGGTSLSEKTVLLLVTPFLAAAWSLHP")
"5.4%"
>>> meas_value("MAGPPRLLLLPLLLALARGLPGALAAQEVQQSPHCTTVPVGASVNITCSTSGGLRGIYLRQLGPQPQDIIYYEDGVVPTTDRRFRGRIDFSGSQDNLTITMHRLQLSDTGTYTCQAITEVNVYGSGTLVLVTEEQSQGWHRCSDAPPRASALPAPPTGSALPDPQTASALPDPPAASALPAALAVISFLLGLGLGVACVLARTQIKKLCSWRDKNSAACVVYEDMSHSRCNTLSSPNQYQ")
"5.29%"
